Assay Protocol: Plasma clearance in Sprague-Dawley rat at 1 mg/kg, iv
Format: ADME, organism-based
Design: dose 1 mg/kg, route intravenous

>  <Test Smiles>
Cn1ccc(Nc2ncnc3ccc(Oc4c(F)cccc4S(C)(=O)=O)cc23)n1

>  <clearance [mL/min/kg]>
6.8

$$$$

---

Assay Protocol: Oral bioavailability in Sprague-Dawley rat at 3 mg/kg
Type: ADME, organism-based
Measurement Conditions: in vivo
Measure: bioavailability (%)

>  <Test Smiles>
Cn1ccc(Nc2ncnc3ccc(Oc4c(F)cccc4S(C)(=O)=O)cc23)n1

>  <Reading>
71

$$$$

---

Assay Protocol: Tmax in Sprague-Dawley rat at 3 mg/kg
Type: ADME, organism-based
Set-up: dose 3 mg/kg
Measurement Conditions: in vivo

>  <Test Smiles>
Cn1ccc(Nc2ncnc3ccc(Oc4c(F)cccc4S(C)(=O)=O)cc23)n1

>  <Tmax [min]>
54

$$$$
